- measured_target: androgen receptor (Homo sapiens, UniProt P10275, T878A)
- Construct: host or cells: LNCaP·FGC cells
- Sequence (P10275 whole entry T878A): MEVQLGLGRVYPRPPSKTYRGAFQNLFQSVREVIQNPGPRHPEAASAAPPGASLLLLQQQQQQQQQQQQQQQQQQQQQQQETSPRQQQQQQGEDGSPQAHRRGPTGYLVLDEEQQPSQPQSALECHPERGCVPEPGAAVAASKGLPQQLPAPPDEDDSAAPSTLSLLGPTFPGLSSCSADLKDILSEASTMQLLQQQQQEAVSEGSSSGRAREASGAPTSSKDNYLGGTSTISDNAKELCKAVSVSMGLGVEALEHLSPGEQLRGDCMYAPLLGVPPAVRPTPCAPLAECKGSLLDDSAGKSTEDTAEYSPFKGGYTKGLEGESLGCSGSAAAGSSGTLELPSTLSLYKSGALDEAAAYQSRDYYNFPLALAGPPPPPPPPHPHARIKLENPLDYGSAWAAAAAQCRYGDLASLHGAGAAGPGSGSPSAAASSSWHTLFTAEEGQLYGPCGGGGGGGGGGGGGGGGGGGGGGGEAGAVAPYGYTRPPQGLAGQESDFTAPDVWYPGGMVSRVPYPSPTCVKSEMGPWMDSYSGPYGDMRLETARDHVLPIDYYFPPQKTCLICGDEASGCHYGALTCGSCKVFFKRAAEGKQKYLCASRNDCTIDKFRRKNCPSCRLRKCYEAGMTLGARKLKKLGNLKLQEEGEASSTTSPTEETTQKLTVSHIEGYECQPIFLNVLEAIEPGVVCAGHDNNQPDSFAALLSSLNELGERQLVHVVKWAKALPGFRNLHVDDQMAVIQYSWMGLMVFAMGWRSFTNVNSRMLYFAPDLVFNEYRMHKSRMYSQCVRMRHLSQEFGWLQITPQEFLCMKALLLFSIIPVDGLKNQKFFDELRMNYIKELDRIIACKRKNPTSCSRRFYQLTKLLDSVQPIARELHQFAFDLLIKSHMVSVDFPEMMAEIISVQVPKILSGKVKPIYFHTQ
- method_summary: Androgen receptor degradation assay using Western blot analysis
- Type: cell-based
- condition_info: LNCaP·FGC cells, concentration needed for 50% AR degradation, serial dilutions
Each entry below carries its recorded DC50.

compound	measured
CCn1c2c(c3ccc(N4CCN(CC5CCN(c6ccc(-c7ccc8c(c7)C(C)(C)C(=O)N8c7ccc(C#N)c(Cl)c7)c(F)n6)CC5)CC4)cc31)C(=O)N(C1CCC(=O)NC1=O)C2=O (centres unmarked)	200 to 1000 nM

Value lookup for DC50; key = CCn1c2c(c3ccc(N4CCN(CC5CN(c6ccc(-c7ccc8c(c7)C(C)(C)C(=O)N8c7ccc(C#N)c(Cl)c7)c(F)n6)C5)CC4)cc31)C(=O)N(C1CCC(=O)NC1=O)C2=O (centres unmarked)
< 200 nM

Need DC50 of Cn1c2c(c3ccc(N4CCN(CC5CCN(c6ccc(-c7ccc8c(c7)C(C)(C)C(=O)N8c7ccc(C#N)c(Cl)c7)nn6)CC5)CC4)cc31)C(=O)N(C1CCC(=O)NC1=O)C2=O (centres unmarked) , thanks.
≥ 1000 nM

What measured DC50 goes with CCn1c2c(c3ccc(OCCN4CCN(c5ccc(-c6ccc7c(c6)C(C)(C)C(=O)N7c6ccc(C#N)c(Cl)c6)c(F)n5)CC4)cc31)C(=O)N(C1CCC(=O)NC1=O)C2=O (centres unmarked) ?
200 to 1000 nM

Form field: reported DC50 of Cn1c2c(c3ccc(OC4CCN(CC5CN(c6ccc(-c7ccc8c(c7)C(C)(C)C(=O)N8c7ccc(C#N)c(Cl)c7)c(F)n6)C5)CC4)cc31)C(=O)N(C1CCC(=O)NC1=O)C2=O (centres unmarked)
≥ 1000 nM

====

- measured_target: androgen receptor (Homo sapiens, UniProt P10275, T878A)
- Construct: host or cells: LNCaP·FGC cells
- method_summary: Androgen receptor degradation assay using Western blot analysis
- Format: cell-based
- condition_info: LNCaP·FGC cells, concentration needed for 50% AR degradation, serial dilutions
observable: DC50

Consider the worked cases shown below.
molecule	measured
CCn1c2c(c3ccc(C4CCN(CC5CN(c6ccc(-c7ccc8c(c7)C(C)(C)C(=O)N8c7ccc(C#N)c(Cl)c7)c(F)n6)C5)CC4)cc31)C(=O)N(C1CCC(=O)NC1=O)C2=O (centres unmarked)	200 to 1000 nM
Cn1c2c(c3ccc(N4CCN(CC5CN(c6ccc(-c7ccc8c(c7)C(C)(C)C(=O)N8c7ccc(C#N)c(Cl)c7)c(F)n6)C5)CC4)cc31)C(=O)N(C1CCC(=O)NC1=O)C2=O (centres unmarked)	200 to 1000 nM
Cn1c2c(c3ccc(C4CCN(CC5CCN(c6ccc(-c7ccc8c(c7)C(C)(C)C(=O)N8c7ccc(C#N)c(Cl)c7)c(F)n6)CC5)CC4)cc31)C(=O)N(C1CCC(=O)NC1=O)C2=O (centres unmarked)	200 to 1000 nM
Cn1c2c(c3ccc(N4CCN(CC5CCN(c6ccc(-c7ccc8c(c7)C(C)(C)C(=O)N8c7ccc(C#N)c(Cl)c7)c(F)n6)CC5)CC4)cc31)C(=O)N(C1CCC(=O)NC1=O)C2=O (centres unmarked)	≥ 1000 nM

Fill in the blank: the reported DC50 of CCn1c2c(c3ccc(OCCCN4CCN(c5ccc(-c6ccc7c(c6)C(C)(C)C(=O)N7c6ccc(C#N)c(Cl)c6)c(F)n5)CC4)cc31)C(=O)N(C1CCC(=O)NC1=O)C2=O (centres unmarked) is ____.
200 to 1000 nM
